From: ChEMBL document CHEMBL1201862

# System: NCI/ADR-RES
# EXPERIMENT_DESCRIPTION: NCI tumour cell line growth inhibition, 48 h
Active and inactive are the calls of the source. No stated cut-off is given here; in the data, active = GI50 up to about 1.1 µM and inactive = higher.
For each record, write down the corresponding GI50.

Examples from the recorded data:
>  <MOLECULE>
CC(=O)Nc1ccc(-c2cc(C(=O)O)c3cc4ccccc4cc3n2)cc1

>  <RESULT>
> 100 µM (inactive)

$$$$
>  <MOLECULE>
O=C1/C(=C/c2cccnc2)SC(=S)N1Cc1ccco1

>  <RESULT>
20.1 µM (inactive)

$$$$
>  <MOLECULE>
CC(C)=CC1CC(C)C2(CCC3(C)CC4C(C(=O)CC4(C)O)/C(C=O)=C\CC32)O1 (centres undefined)

>  <RESULT>
0.11 µM (active)

$$$$
>  <MOLECULE>
CCC1(c2ccc(N3C(=O)c4ccccc4C3=O)cc2)CCC(=O)NC1=O (centres undefined)

>  <RESULT>
> 10 µM (inactive)

$$$$
>  <MOLECULE>
COC(=O)c1c[nH]c(=O)[nH]c1=O

>  <RESULT>
> 100 µM (inactive)

$$$$

// each listed molecule needs a value for GI50
1. Cc1c(C(=O)OCc2ccccc2)[n+]([O-])c2cc(F)c(F)cc2[n+]1[O-]
2. O=c1[nH]c2cc3cccnc3c(Cl)c2nc1C(F)(F)F
3. COc1ccc(OC)c2sc(N3C(=O)/C(=C/c4ccc(SC)cc4)N=C3c3ccccc3)nc12
4. Cc1cs/c(=N\C(P(=O)(O)O)P(=O)(O)O)n1C
5. COc1ccc(/C(Nc2ccccc2)=C(\CCl)c2ccccc2)cc1OC
6. COc1cc2c(c3oc4c(O)cccc4c(=O)c13)CC(C(C)(O)CCl)O2 (centres undefined)
7. O=C1/C(=C/c2ccc(Cl)c(Cl)c2)CN(C(=O)CCN2CCOCC2)C/C1=C\c1ccc(Cl)c(Cl)c1

Data returned:
["3.22 µM (inactive)", "33.3 µM (inactive)", "29.3 µM (inactive)", "> 100 µM (inactive)", "32.1 µM (inactive)", "0.679 µM (active)", "0.0043 µM (active)"]
